Test system: HOP-62 NSCLC
assay-protocol: NCI-60 one-dose screen, 48 h
protocol-conditions: 10 µM unless noted
Compounds without any hit were thinned out: in the full panel of roughly 83,000, 20% have a hit. Active and inactive are the calls of the source. Rule for the calls: active = growth percent below 10; inactive = the rest.
Reply using exactly one outcome from t for active, f for inactive

Check the results log: what was the call for CCC1=C[C@@H]2CN(C1)Cc1c([nH]c3ccccc13)[C@@](C(=O)OC)(c1cc3c(cc1OC)N(C)[C@H]1[C@@](O)(C(=O)OC)[C@H](OC(C)=O)[C@]4(CC)[C@@H]5C[C@@H]5CN5CC[C@]31[C@@H]54)C2 ?
f

What about this molecule? O=C(c1nc2ccccc2[nH]1)C1C(c2cccc([N+](=O)[O-])c2)C2CC3CCCCC3N2[C@@]12C(=O)Nc1cc(Cl)ccc12 (some centres not stated)
f

Another molecule to look at: FC(F)(F)c1cccc(Nc2nc3ccccc3nc2Nc2cccc(C(F)(F)F)c2)c1
t

Thanks! And COc1ccc(Cn2c(Br)c3c(c2Br)-c2nc(N)sc2CC3)cc1 ?
f

Similarly, O=C1c2cc(I)ccc2Oc2cc([N+](=O)[O-])ccc2N1c1ccc(Cl)cc1F ?
f

Continue with CCOC(=O)c1sc(-c2ccc(OS(=O)(=O)c3ccccc3[N+](=O)[O-])c(C=O)c2)nc1C
f

Now try COc1cccc(C2=NN3C(C2)c2ccccc2OC3c2ccc(/C=C3\SC(=O)NC3=O)cc2)c1 (configuration not stated) .
f

Would you mind doing COc1ccc(S(=O)(=O)N(Cc2ccc3c(n2)C=CC(C)(C)O3)C2CCC2)cc1OC as well?
t

// next record COc1ccc2sc3c(NCCCN)nc4ccccc4c3c(=O)c2c1
f

Please do the same for O=C(Cn1cc(COc2ncnc3c2cnn3-c2ccccc2)nn1)Nc1ccccn1 as well.
f

Same question for O=C(Nc1ccc(N2CCNCC2)cc1)c1[nH]ncc1Nc1ncnc2sc3c(c12)CCC3 please.
t

Try this molecule next: COc1ccc2[nH]c(O)c(N=NC(=O)c3oc4ccccc4c3C)c2c1
t

Now consider Nc1ccc(-c2nc3cc(Oc4ccc(Oc5ccc6[nH]c(-c7ccc(N)cc7)nc6c5)cc4)ccc3[nH]2)cc1 and answer again.
f

Follow-up entry: O=Nc1c(O)ccc2ccccc12.O=Nc1c(O)ccc2ccccc12.O=Nc1c([O-])ccc2ccccc12.[Fe+3]
f

Same lookup for O=S(=O)(c1ccc(NC(=S)NC23CC4CC(CC(C4)C2)C3)cc1)N1CCCCC1 , please.
f

Subsequent entry: O=C(/C=C/c1ccc(C(F)(F)F)cc1)c1ccc(Nc2nc(NCCO)nc(N3CCOCC3)n2)cc1
f

Would you kindly repeat that for CC(=O)c1ccc2oc(=O)n(Cc3ccc(C#N)cc3)c(=O)c2c1 ?
f

Now this one: O=C1/C(=C\c2ccc[nH]2)c2ccccc2N1c1ccccc1
f

Repeat for the following molecule: COc1ccc(-c2nc(-c3ccccc3)c(-c3ccccc3)[nH]2)cc1OC1CCCCC1
f

Now give it for COc1cc(/C=C2\Oc3cc(OCCCN4CCCC4)ccc3C2=O)cc(OC)c1 too.
f

Now the same for O=C(NC1CCCCC1)C(c1cccs1)N(CCc1ccccc1)C(=O)c1ccco1 (configuration not stated)
f

Request: Clc1ncccc1Nc1ccc2nnc(-c3ccncc3)n2n1
f

Also check CCN1C(=O)N(CC)C2Nn3c(s/c(=C\c4ccccc4F)c3=O)=NC21 (configuration not stated)
f

Same thing, different molecule: Cc1ccc(F)cc1NC(=O)c1cc(Cl)ccc1Nc1ccccc1
f

Next record, please: CCCCCCc1cc2cc(-c3nc4ccccc4[nH]3)c(=Nc3ccccc3C)oc2cc1O
f

Repeat for the following molecule: CC(=Nc1ccccc1)C1=C(O)C(Cc2ccc(F)cc2)NC1=O (configuration not stated)
f

Let us now turn to CCOC(=O)c1c2c(c(C)n1Cc1ccc(OC)cc1)-c1oncc1CC2
f
